Origin of values: patent US20180282402A1

Molecular target: T1, Human HARS (human, UniProt P12081 1-509, limits assumed)
T1 construct: also called human HRS; human histidyl-tRNA synthetase
T1 sequence: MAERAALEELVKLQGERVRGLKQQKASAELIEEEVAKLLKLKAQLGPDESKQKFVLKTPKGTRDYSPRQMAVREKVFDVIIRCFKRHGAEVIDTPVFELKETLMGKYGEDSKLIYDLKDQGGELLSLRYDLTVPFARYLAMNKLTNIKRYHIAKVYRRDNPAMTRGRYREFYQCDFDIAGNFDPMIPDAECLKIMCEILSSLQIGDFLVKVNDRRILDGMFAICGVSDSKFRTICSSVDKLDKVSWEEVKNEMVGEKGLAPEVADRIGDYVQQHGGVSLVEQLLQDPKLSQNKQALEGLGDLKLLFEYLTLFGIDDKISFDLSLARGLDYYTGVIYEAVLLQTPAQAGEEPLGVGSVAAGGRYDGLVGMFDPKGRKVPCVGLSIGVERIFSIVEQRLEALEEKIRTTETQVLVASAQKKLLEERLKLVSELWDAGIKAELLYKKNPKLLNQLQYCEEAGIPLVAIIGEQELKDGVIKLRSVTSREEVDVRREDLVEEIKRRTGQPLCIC
Assay: SPR (ProteOn); HRS protein immobilized, antibody as analyte
measured-attribute: Kd (nM)
Give just the numeric value; nM need not be written.

binder	numeric-result
KL31-261 (antibody, V domains shown, Humanized; IgG1m(zf) kappa) VH: QVQLVQSGAEVKKPGASVKVSCKASGYTFTDYCIGWIRQAPGQGLEWMGDICPGDVYTNDNEKFKDRATMTADTSTSTAYMELSSLRSEDTAVYYCARGEEQLGLRNAMDYWGQGTLVTVSS VL: DIVMTQSPDSLAVSLGERATINCQSQSVSTSTYNYMHWYQQKPGQPPKLLIKYASNLESGVPDRFSGSGSGTDFTLTISSLQAEDVATYYCQHSWEIPWTFGGGTKVEIK	0.67

The recorded Kd for AB04-174 (antibody, V domains shown, Human; IgG1m(zf) kappa) VH: QVQLVESGGGLVKPGGSLRLSCAASGFTFSDYYMTWIRQAPGKGLEWVSYISGSNAYTDYADSVKGRFTISRDNAKNSLYLQMNSLRDEDTAVYFCARYVYQTVAIGDLWGQGTLVTVSS VL: DIQMTQSPSSVSASVGDRVTITCRASQGISSWLAWYQQKPGRAPKLLIFAASSLQSGVPSRFSGSGSGTHFTLTISSLQPEDFATYYCQQAKSFPYTFGQGTKLEIK is 170
